B1: TPR 5TU (parent)
chain: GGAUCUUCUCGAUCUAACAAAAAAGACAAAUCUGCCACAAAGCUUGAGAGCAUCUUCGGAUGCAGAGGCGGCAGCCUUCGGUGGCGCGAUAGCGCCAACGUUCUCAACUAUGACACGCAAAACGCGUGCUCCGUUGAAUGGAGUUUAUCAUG

Variants of: B1
PROCEDURE_SUMMARY: polymerase ribozyme fitness, log enrichment relative to wild type (log ratio); higher = more active; in vitro selection for triplet polymerase activity
Fewer inactive variants are shown than the library holds.
Entries annotated with measured polymerase ribozyme fitness (log ratio)
Kindly provide the number alone.

Inquiry: Value lookup for polymerase ribozyme fitness (log ratio); key = G81C C95A U134A U144C
Reply text: -2.86

Inquiry: # query: polymerase ribozyme fitness (log ratio) of entry U45G C85G
Reply text: -3.44

***
Inquiry: Which polymerase ribozyme fitness (log ratio) is reported for this variant? C76A A142G U146A
Reply text: -1.52

Inquiry: Look at this variant and give its reported polymerase ribozyme fitness (log ratio). G42A C116G
Reply text: -3.99

Inquiry: Fill in the blank: the reported polymerase ribozyme fitness (log ratio) of A20U C63A G84U C87U is ____.
Reply text: -3.3

Inquiry: Sample C54G G86A A120U — what was its polymerase ribozyme fitness (log ratio)?
Reply text: -2.8
